Measured IC50 accompanies every entry in the list below.
Molecular target: system Xc^− (Homo sapiens)
Assay: Cystine-induced glutamate release assay
Format: cell-based
Design: endogenous in cells; host or cells: H4 cells
Details: H4 cells, sodium-free HEPES buffer, 50 μM L-Cystine, 2 hours, Amplex Red glutamate readout; read-out: pIC50 Cystine-induced glutamate release assay (converted)

- Compound: "Cc1cc2c(cn1)-c1cccnc1C(C)C(=O)N2CC(=O)Nc1ccc(C(F)F)c(F)c1 (single isomer, unassigned)"
  IC50: "< 15.8 nM"
- Compound: "COc1nc(C)cc2c1-c1ccccc1CC(=O)N2CC(=O)Nc1ccc(C(F)(F)F)cc1"
  IC50: "15.8 to 39.8 nM"
- Compound: "Cc1cc2c(c(F)n1)-c1cccnc1C(C)C(=O)N2CC(=O)Nc1ccc(OC(F)F)c(F)c1 (centres unmarked)"
  IC50: "100 to 501 nM"
- Compound: "COc1ncc2c(c1C)-c1cccnc1CC(=O)N2CC(=O)Nc1ccc(C(F)(F)F)cc1"
  IC50: "39.8 to 100 nM"
- Compound: "Cc1cc2c(c(F)n1)-c1cccnc1[C@@H](C)C(=O)N2CC(=O)Nc1cc(F)c(Cl)cc1F"
  IC50: "15.8 to 39.8 nM"
- Compound: "COc1cc2c(c(OC)n1)-c1cccnc1C(C)C(=O)N2CC(=O)Nc1ccc(C(F)(F)F)nc1 (single isomer, unassigned)"
  IC50: "15.8 to 39.8 nM"
- Compound: "Cc1cc2c(c(Cl)n1)-c1cccnc1C(C)C(=O)N2CC(=O)Nc1ccc(C(F)(F)F)cc1 (centres unmarked)"
  IC50: "15.8 to 39.8 nM"
- Compound: "COc1nc(C)cc2c1-c1cncnc1CC(=O)N2CC(=O)Nc1ccc(C(F)(F)F)cc1"
  IC50: "39.8 to 100 nM"

----------
Target: system Xc^− (Homo sapiens, UniProt Q9UPY5)
Sequence (Q9UPY5 whole entry): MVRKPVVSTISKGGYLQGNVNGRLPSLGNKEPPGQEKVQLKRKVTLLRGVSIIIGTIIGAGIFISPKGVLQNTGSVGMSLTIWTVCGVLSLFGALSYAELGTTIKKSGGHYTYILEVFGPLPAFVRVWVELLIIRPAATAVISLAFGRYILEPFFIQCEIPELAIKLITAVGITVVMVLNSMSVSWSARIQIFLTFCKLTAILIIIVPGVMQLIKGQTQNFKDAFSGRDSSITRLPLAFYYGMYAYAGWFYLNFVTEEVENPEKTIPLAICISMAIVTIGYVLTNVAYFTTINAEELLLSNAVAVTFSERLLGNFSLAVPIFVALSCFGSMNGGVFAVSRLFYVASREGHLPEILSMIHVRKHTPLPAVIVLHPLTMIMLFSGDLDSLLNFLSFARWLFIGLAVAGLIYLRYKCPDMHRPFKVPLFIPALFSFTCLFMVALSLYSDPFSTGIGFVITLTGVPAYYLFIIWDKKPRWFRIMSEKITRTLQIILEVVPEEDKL
Sequence (P08195 102-630 partner): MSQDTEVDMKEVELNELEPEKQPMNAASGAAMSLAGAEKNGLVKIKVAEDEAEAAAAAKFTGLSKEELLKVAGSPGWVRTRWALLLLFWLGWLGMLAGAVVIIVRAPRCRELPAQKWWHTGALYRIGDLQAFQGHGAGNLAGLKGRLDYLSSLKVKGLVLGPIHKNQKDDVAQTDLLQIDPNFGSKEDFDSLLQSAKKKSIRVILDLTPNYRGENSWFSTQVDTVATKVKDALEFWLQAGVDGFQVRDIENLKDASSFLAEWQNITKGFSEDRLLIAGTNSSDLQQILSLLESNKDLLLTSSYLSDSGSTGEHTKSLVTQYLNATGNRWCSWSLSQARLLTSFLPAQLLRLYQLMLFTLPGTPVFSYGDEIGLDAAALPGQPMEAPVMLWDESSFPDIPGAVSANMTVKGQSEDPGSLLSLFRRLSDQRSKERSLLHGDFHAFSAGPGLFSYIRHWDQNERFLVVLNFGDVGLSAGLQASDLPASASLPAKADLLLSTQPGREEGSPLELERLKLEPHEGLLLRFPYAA
Experiment: Cystine-induced glutamate release assay
Assay type: cell-based
Design: endogenous in cells; host or cells: H4 cells
Conditions: H4 cells, sodium-free HEPES buffer, 50 μM L-Cystine, 2 hours, Amplex Red glutamate readout; read-out: pIC50 Cystine-induced glutamate release assay (converted)
Listed below: IC50 values for each entry.
Readout Label: IC50

- Compound: "CC1C(=O)N(CC(=O)Nc2ccc(C(F)F)cc2)c2cc(OC3CN(C)C3)nc(F)c2-c2cccnc21 (centres unmarked) [#378]"
  Observed Value: "15.8 to 39.8 nM"
- Compound: "Cc1cc2c(c(F)n1)-c1cccnc1[C@@H](C)C(=O)N2CC(=O)Nc1ccc(C2(F)CC2)cc1 [#246]"
  Observed Value: "< 15.8 nM"
- Compound: "Cc1cc2c(c(=O)n1C)-c1ccc(Cl)cc1C(C)C(=O)N2CC(=O)Nc1ccc(Cl)c(F)c1 (centres unmarked) [#352]"
  Observed Value: "15.8 to 39.8 nM"
- Compound: "COCCN(C)c1cc2c(c(F)n1)-c1cccnc1C(C)C(=O)N2CC(=O)Nc1ccc(Cl)c(F)c1 (centres unmarked) [#264]"
  Observed Value: "15.8 to 39.8 nM"
- Compound: "CC1C(=O)N(CC(=O)Nc2ccc(Cl)c(F)c2)c2cc(N3CC4(C3)CC4(F)F)nc(F)c2-c2cccnc21 (single isomer, unassigned) [#270]"
  Observed Value: "39.8 to 100 nM"
- Compound: "Cc1cc2c(c(F)n1)-c1ccnnc1C(C)C(=O)N2CC(=O)Nc1ccc(C(F)(F)F)cc1 (centres unmarked) [#172]"
  Observed Value: "15.8 to 39.8 nM"
- Compound: "CC1C(=O)N(CC(=O)Nc2ccc(C(F)F)cc2)c2cc(N3[C@@H]4CCC[C@H]3C4)nc(F)c2-c2cccnc21 (single isomer, unassigned) [#287]"
  Observed Value: "15.8 to 39.8 nM"
- Compound: "COc1cc2c(cn1)-c1cccnc1C(C)C(=O)N2CC(=O)Nc1ccc(C(F)F)cc1 (single isomer, unassigned) [#319]"
  Observed Value: "15.8 to 39.8 nM"
- Compound: "CC1C(=O)N(CC(=O)Nc2ccc(Cl)c(F)c2)c2cc(F)cc(F)c2-c2cncnc21 (single isomer, unassigned) [#372]"
  Observed Value: "< 15.8 nM"
- Compound: "Cc1cc2c(c(F)n1)-c1cccnc1[C@@H](C)C(=O)N2CC(=O)Nc1ccc(OC(F)F)cc1 [#139]"
  Observed Value: "15.8 to 39.8 nM"
- Compound: "O=C(CN1C(=O)Cc2ncccc2-c2c1cc(Cl)nc2Cl)Nc1ccc(C(F)(F)F)cc1 [#168]"
  Observed Value: "100 to 501 nM"
- Compound: "Cc1cc2c(cn1)-c1ccc(F)cc1C(C)C(=O)N2CC(=O)Nc1ccc(Cl)c(F)c1 (single isomer, unassigned) [#324]"
  Observed Value: "< 15.8 nM"
- Compound: "Cc1cc2c(cc1C)-n1nccc1CC(=O)N2CC(=O)Nc1ccc(C(F)(F)F)cc1 [#5]"
  Observed Value: "100 to 501 nM"
- Compound: "[2H]C([2H])([2H])[C@H]1C(=O)N(CC(=O)Nc2ccc(C(F)(F)F)cc2)c2cc(C)nc(F)c2-c2cccnc21 (single isomer, unassigned) [#203]"
  Observed Value: "15.8 to 39.8 nM"
- Compound: "Cc1cc2c(cc1C)N(CC(=O)Nc1ccc(C(F)(F)F)cc1)C(=O)Cc1cccnc1-2 [#22]"
  Observed Value: "100 to 501 nM"
- Compound: "O=C(CN1C(=O)C(CO)c2ncccc2-c2c(F)cc(Cl)cc21)Nc1ccc(Cl)c(F)c1 (single isomer, unassigned) [#382]"
  Observed Value: "15.8 to 39.8 nM"
- Compound: "Cc1cc2c(c(F)n1)-c1ccccc1CC(=O)N2CC(=O)Nc1ccc(C(F)F)cc1 [#134]"
  Observed Value: "39.8 to 100 nM"
- Compound: "Cc1cc2c(c(F)n1)-c1cncnc1C(C)C(=O)N2CC(=O)Nc1ccc(C(F)(F)F)cc1 (centres unmarked) [#112]"
  Observed Value: "39.8 to 100 nM"
- Compound: "Cc1cc2c(cn1)-c1cc(F)cnc1C(C)C(=O)N2CC(=O)Nc1ccc(Cl)c(F)c1 (single isomer, unassigned) [#327]"
  Observed Value: "< 15.8 nM"
- Compound: "Cc1c2c(cn(C)c1=O)N(CC(=O)Nc1ccc(C(F)F)cc1)C(=O)C(C)c1ccccc1-2 (single isomer, unassigned) [#368]"
  Observed Value: "< 15.8 nM"
- Compound: "Cc1cc2c(c(F)n1)-c1sccc1CC(=O)N2CC(=O)Nc1ccc(C(F)(F)F)cc1 [#42]"
  Observed Value: "39.8 to 100 nM"
- Compound: "Cc1cc2c(c(O)n1)-c1cccnc1CC(=O)N2CC(=O)Nc1ccc(C(F)(F)F)cc1 [#76]"
  Observed Value: "100 to 501 nM"
- Compound: "CC1C(=O)N(CC(=O)Nc2ccc(C(F)F)cc2)c2cc(Cl)cc(F)c2-c2cncnc21 (single isomer, unassigned) [#313]"
  Observed Value: "< 15.8 nM"
- Compound: "CC1C(=O)N(CC(=O)Nc2ccc(C(F)F)cc2)c2cc(C3(F)CC3)ncc2-c2cc(F)cnc21 (single isomer, unassigned) [#325]"
  Observed Value: "15.8 to 39.8 nM"
- Compound: "Cc1cc2c(c(Cl)n1)-c1ccnn1CC(=O)N2CC(=O)Nc1ccc(C(F)(F)F)cc1 [#100]"
  Observed Value: "39.8 to 100 nM"
- Compound: "N#Cc1ccc2c(c1F)-c1cccnc1CC(=O)N2CC(=O)Nc1ccc(C(F)(F)F)cc1 [#54]"
  Observed Value: "100 to 501 nM"
- Compound: "CC1C(=O)N(CC(=O)Nc2ccc(C(F)F)cc2)c2cc(N3CC4(C3)CC(F)(F)C4)nc(F)c2-c2cccnc21 (single isomer, unassigned) [#281]"
  Observed Value: "39.8 to 100 nM"
- Compound: "Cc1cc2c(n(C)c1=O)-c1ccccc1CC(=O)N2CC(=O)Nc1ccc(Cl)c(F)c1 [#350]"
  Observed Value: "15.8 to 39.8 nM"
- Compound: "CCn1c(C)cc2c(c1=O)-c1cccnc1[C@@H](C)C(=O)N2CC(=O)Nc1ccc(Cl)c(F)c1 (single isomer, unassigned) [#176]"
  Observed Value: "< 15.8 nM"

----------
Recorded IC50, one value per entry.
Target: system Xc^− (Homo sapiens)
Experiment: [^14C]L-Cystine uptake assay
Assay type: cell-based
Parameters: endogenous in cells; host or cells: H4 cells
Conditions: H4 cells, sodium-free HEPES buffer, 0.5 μM L-[14C]Cystine and 4.5 μM L-Cystine, 1 hour at 37° C.; read-out: pIC50 [^14C] L-Cystine uptake assay (converted)
Description: The effect of compounds of Formula (I) on the system Xc^− functionality was examined in two independent cell assays: (i) measurement of cystine-induced glutamate release; and (ii) measurement of [^14C]L-Cystine uptake. […] In this assay, the medium is devoid of sodium to prevent the transport of glutamate by sodium-dependent excitatory amino acid transporters (EAATs). […] After 1 hour at 37° C., plates were counted in a MicroBeta^2 microplate counter (PerkinElmer).

- Compound: "Cc1cc2c(c(F)n1)-c1ccc(C)nc1[C@@H](C)C(=O)N2CC(=O)Nc1ccc(C(F)(F)F)cc1 (single isomer, unassigned) [#204]"
  IC50: "< 15.8 nM"
- Compound: "CC1C(=O)N(CC(=O)Nc2ccc(Cl)c(F)c2)c2ccn(C)c(=O)c2-c2ccc(F)cc21 (single isomer, unassigned) [#364]"
  IC50: "< 15.8 nM"
- Compound: "Cc1c2c(cn(C)c1=O)N(CC(=O)Nc1ccc(C(F)F)cc1)C(=O)C(C)c1ccccc1-2 (single isomer, unassigned) [#368]"
  IC50: "< 15.8 nM"
- Compound: "CC1C(=O)N(CC(=O)Nc2ccc(C(F)F)cc2)c2cc(Cl)cc(F)c2-c2cncnc21 (single isomer, unassigned) [#313]"
  IC50: "15.8 to 39.8 nM"
- Compound: "O=C(CN1C(=O)Cc2cccnc2-c2cnc(Cl)cc21)Nc1ccc(C(F)(F)F)cc1 [#7]"
  IC50: "39.8 to 100 nM"
- Compound: "Cc1cc2c(c(F)n1)-c1ccc(F)cc1C(C)C(=O)N2CC(=O)Nc1ccc(Cl)c(F)c1 (centres unmarked) [#404]"
  IC50: "39.8 to 100 nM"
- Compound: "COc1cc2c(c(Cl)n1)-c1cccnc1C(C)C(=O)N2CC(=O)Nc1ccc(C(F)F)cc1 (single isomer, unassigned) [#411]"
  IC50: "< 15.8 nM"
- Compound: "Cc1cc2c(c(F)n1)-c1ncccc1C(C)C(=O)N2CC(=O)Nc1ccc(Cl)c(F)c1 (single isomer, unassigned) [#401]"
  IC50: "< 15.8 nM"
- Compound: "COc1cc2c(c(F)n1)-c1cccnc1C(C)C(=O)N2CC(=O)Nc1ccc(C(F)(F)F)cc1 (centres unmarked) [#182]"
  IC50: "15.8 to 39.8 nM"
- Compound: "COc1ccc2c(c1)C(C)C(=O)N(CC(=O)Nc1ccc(C(F)(F)F)cc1)c1cc(C)nc(Cl)c1-2 (centres unmarked) [#393]"
  IC50: "15.8 to 39.8 nM"
- Compound: "Cc1cc2c(c(Cl)n1)-c1cncnc1[C@@H](C)C(=O)N2CC(=O)Nc1ccc(C(F)(F)F)cc1 (single isomer, unassigned) [#207]"
  IC50: "< 15.8 nM"
- Compound: "Cc1cc2c(c(F)n1)-c1ncccc1CC(=O)N2CC(=O)Nc1ccc(Cl)c(F)c1 [#41]"
  IC50: "100 to 501 nM"
- Compound: "Cc1cc2c(c(Cl)n1)-c1ccccc1CC(=O)N2CC(=O)Nc1ccc(Cl)c(F)c1 [#50]"
  IC50: "< 15.8 nM"
- Compound: "CC1C(=O)N(CC(=O)Nc2ccc(Cl)c(F)c2)c2cc(C#N)cc(F)c2-c2cccnc21 (single isomer, unassigned) [#310]"
  IC50: "< 15.8 nM"
- Compound: "CC1C(=O)N(CC(=O)Nc2ccc(Cl)c(F)c2)c2cc(OCCO)nc(F)c2-c2cccnc21 (centres unmarked) [#375]"
  IC50: "< 15.8 nM"
- Compound: "CC(=O)OCc1cc2c(cn1)-c1ccccc1CC(=O)N2CC(=O)Nc1ccc(C(F)(F)F)cc1 [#59]"
  IC50: "100 to 501 nM"
- Compound: "Cc1cc2c(c(F)n1)-c1cccc(=O)n1CC(=O)N2CC(=O)Nc1ccc(C(F)(F)F)cc1 [#102]"
  IC50: "39.8 to 100 nM"
- Compound: "C[C@H]1C(=O)N(CC(=O)Nc2ccc(C(F)F)cc2)c2cc(N3CC4C(C3)C4(F)F)nc(F)c2-c2cccnc21 (single isomer, unassigned) [#289]"
  IC50: "< 15.8 nM"
- Compound: "Cc1cc2c(c(F)n1)-c1cccnc1C(C)C(=O)N2CC(=O)Nc1ccc(C#N)c(F)c1 (centres unmarked) [#133]"
  IC50: "39.8 to 100 nM"
- Compound: "Cc1ccc2c(n1)CC(=O)N(CC(=O)Nc1ccc(Cl)c(F)c1)c1cc(C)c(C)cc1-2 [#4]"
  IC50: "100 to 501 nM"
- Compound: "COc1cc2c(c(OC)n1)-c1cccnc1C(C)C(=O)N2CC(=O)Nc1ccc(C(F)F)cc1 (single isomer, unassigned) [#335]"
  IC50: "< 15.8 nM"
- Compound: "Cc1cc2c(n(C)c1=O)-c1cccnc1[C@@H](C)C(=O)N2CC(=O)Nc1ccc(C(F)(F)F)cc1 (single isomer, unassigned) [#208]"
  IC50: "< 15.8 nM"
- Compound: "COc1cc(F)c2c(c1)N(CC(=O)Nc1ccc(Cl)c(F)c1)C(=O)C(C)c1ncncc1-2 (single isomer, unassigned) [#371]"
  IC50: "< 15.8 nM"
- Compound: "O=C(CN1C(=O)Cc2sccc2-c2cnc(Cl)cc21)Nc1ccc(C(F)(F)F)cc1 [#26]"
  IC50: "39.8 to 100 nM"
- Compound: "Cc1cc2c(cn1)-c1ccc(F)cc1C(C)C(=O)N2CC(=O)Nc1ccc(C(F)F)cc1 (single isomer, unassigned) [#323]"
  IC50: "< 15.8 nM"
- Compound: "COc1nc(C)cc2c1-c1cccnc1CC(=O)N2CC(=O)Nc1ccc(C(F)F)cc1 [#83]"
  IC50: "< 15.8 nM"
- Compound: "Cc1cc2c(c(F)n1)-c1ccc(C)nc1C(C)C(=O)N2CC(=O)Nc1ccc(C(F)(F)F)cc1 (centres unmarked) [#93]"
  IC50: "15.8 to 39.8 nM"
- Compound: "COc1nc(C)cc2c1-c1cccnc1CC(=O)N2CC(=O)Nc1ccc(C(F)(F)F)nc1 [#79]"
  IC50: "100 to 501 nM"
- Compound: "COc1nc(F)cc2c1-c1cccnc1CC(=O)N2CC(=O)Nc1ccc(C(F)(F)F)cc1 [#113]"
  IC50: "< 15.8 nM"

All values here come from patent US20260217708A1.
